# Lookup of reported z-score keyed by entry
protocol.notes: S. pombe growth modifiers, basal conditions – strain 972, OD600, 24 h, no modulator, primary screen (AID 1090);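 also: basal condition with compound alone and no growth modifier present; test concentration not given here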
test.settings: S. pombe 972 growth, higher = more signal, called active from +8 up or from −8 down

{"columns": ["molecule", "z-score"],
 "data": [
  ["CN(C)CCCC[C@@H]1NC(=O)[C@@H]2C[C@H](C(=O)NCCCCCCNC(=O)CS)[C@H](c3ccc(O)cc3)N2C1=O", -0.472],
  ["[N-]=[N+]=NCc1ccccc1[C@@H]1OC(c2ccc(OCCCO)cc2)=N[C@]1(Cc1ccccc1N=[N+]=[N-])C(=O)NCC(O)CO (stereo partly specified)", 0.21],
  ["Cc1ccc(S[C@]2(C(=O)NCc3ccccc3)CC(=O)N(Cc3ccccc3C(F)(F)F)[C@@H]2c2ccc(CO)cc2)cc1", 0.447],
  ["CC(C)C(CO)N1C(=O)[C@@H]2C3C(=O)OCCC/C=C\\[C@H]3OC23C=CCN(Cc2ccccc2)C(=O)[C@@H]13 (stereo partly specified)", -0.912],
  ["O=C(NCC(O)CO)C1N=C(c2ccc(OCCCO)cc2)N(c2ccccc2)O1 (stereo unspecified)", -0.243],
  ["CCOC(=O)c1cn(C[C@H](Cc2ccccc2)NC(=O)N[C@H](CO)CCc2oc(C(C)=O)c(C(=O)OC)c2C(=O)OC)nn1", -0.342]
]}

====

Entries and their composite z-score values follow.
measured.target: Fibroblast growth factor 10 (Homo sapiens) (UniProt O15520)
Sequence (O15520 whole entry, looked up): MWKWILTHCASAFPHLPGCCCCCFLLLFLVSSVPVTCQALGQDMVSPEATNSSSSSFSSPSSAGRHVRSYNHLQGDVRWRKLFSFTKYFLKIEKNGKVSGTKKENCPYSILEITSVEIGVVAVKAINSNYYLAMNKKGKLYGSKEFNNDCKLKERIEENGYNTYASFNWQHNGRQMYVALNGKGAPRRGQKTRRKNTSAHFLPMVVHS
protocol.notes: compounds binding fibroblast growth factor 10 – biochemical, small-molecule microarray, 635 nm fluorescence, primary screen (AID 1102)
test.settings: FGF10 binding, fluorescence 635 nm, higher = more signal

{"columns": ["compound", "composite z-score"],
 "data": [
  ["CC(C)c1nc2cc(Br)ccc2c(=O)o1", 0.755],
  ["C[N+](C)(C)CCCCNC(=O)[C@H]1C[C@H]2C(=O)N[C@@H](Cc3ccccc3)C(=O)N2[C@H]1c1cccc(OCCO)c1", 1.44],
  ["C=CCOC(=O)[C@H]1[C@@H]2C(=O)O[C@@H](c3ccccc3)[C@@H](c3ccccc3)N2[C@@H](c2ccc(OCCOC(=O)[C@@H]3C[C@@H]4C(=O)N[C@@H](CCCC[N+](C)(C)C)C(=O)N4[C@@H]3c3ccc(O)cc3)cc2)[C@]12C(=O)Nc1ccc(I)cc12", 1.2],
  ["CCCC=C(CCC)[C@@H](NC(=O)OCC(C)C)c1ccc(C(=O)OC)cc1", 0.674],
  ["COC(=O)C1=CC(CCCO)=CC(c2cccs2)N(Cc2cc3c(cc2Br)OCO3)C=C1C(=O)OC (configuration not stated)", 1.17],
  ["CCN(CC)c1ccc(N2CC=CC34O[C@@H]5C=CCCOC(=O)C5[C@H]3C(=O)N(C(C)CO)[C@@H]4C2=O)cc1 (some centres not stated)", 0.0925],
  ["C=C(CCCC)C(=O)CC[C@@H](OC(=O)c1ccccc1-c1ccccc1C(=O)O)c1ccccc1OCCO", 1.27]
]}

====

protocol.notes: plasmodial surface anion channel blockers, osmotic lysis – cell-based, P. falciparum Indochina, OD700, 1 h, primary screen (AID 1154)
test.settings: P. falciparum Indochina infected RBC osmotic lysis, higher = more signal, called active from +8 up or from −8 down
Calls of active or inactive are those of the source.

{"columns": ["molecule", "z-score"],
 "data": [
  ["NC(=O)NCC#Cc1ccc2c(c1)[C@]1(C(=O)N2)[C@H](c2ccc(OCCO)cc2)N2[C@H](c3ccccc3)[C@H](c3ccccc3)OC(=O)[C@H]2[C@@H]1C(=O)O", "2.54 (inactive)"],
  ["C=C(COC)/C(=C/C[C@H](OC(C)=O)c1ccccc1OCCO)c1cc(C(=O)OC)ccc1OC", "8.11 (active)"],
  ["CC(C)=CCCC(C)=CC(O)C1C=CC2C(=O)NC(=O)C2N1Nc1ccccn1 (centres undefined)", "0.494 (inactive)"],
  ["C=CCNC(=O)[C@H]1[C@@H]2C(=O)O[C@@H](c3ccccc3)[C@@H](c3ccccc3)N2[C@@H](c2ccccc2OCCO)[C@]12C(=O)N(C(=O)OCCOC)c1ccc(C#Cc3ccc(OC)cc3)cc12", "2.46 (inactive)"],
  ["COC(=O)[C@@]1(Cc2ccccc2)[C@H]2c3cc(C(=O)N(C)C)n(CCSC(=N)N)c3C[C@H]2CN1C(=O)c1ccccc1", "0.929 (inactive)"],
  ["CCCC=C(CCC)[C@@H](NC(=O)c1ccc(C(F)(F)F)cc1)c1ccc(C(F)(F)F)cc1", "1.23 (inactive)"],
  ["C=CCC(OC(C)=O)[C@@H]1[C@@H](N(Cc2cc3ccccc3o2)C(=O)Cc2ccc(OC)cc2)c2cc(OCCCO)ccc2N1C(=O)c1ccc2ccccc2n1 (some centres undefined)", "2.75 (inactive)"],
  ["Cc1ccc(N2C(=O)c3ccccc3[C@](C)(C(=O)NCCCN(C)C)[C@@H]2c2ccc(CO)cc2)nc1", "1.23 (inactive)"],
  ["CN(C)CCCNC(=O)[C@@H]1c2ccccc2C(=O)N(Cc2ccccc2C(F)(F)F)[C@H]1c1ccc(CO)cc1", "2.54 (inactive)"],
  ["CC(C)(C)OC(=O)CC[C@]1(C(=O)NCC(O)CO)N=C(c2ccc(OCCCO)cc2)O[C@H]1c1ccccc1N=[N+]=[N-] (some centres undefined)", "29.9 (active)"],
  ["O=C1C[C@@](C(=O)NC2CC2)(c2ccc([N+](=O)[O-])cc2)[C@@H](c2ccc(CO)cc2)N1C1CCCCC1", "1.97 (inactive)"],
  ["CCCC#C[Si](O[C@H](CC)c1cn(Cc2ccccc2)nn1)(C(C)C)C(C)C", "0.708 (inactive)"],
  ["COC(=O)C[C@H]1O[C@@]2(C[C@@H]1[Si](C)(C)C)C(=O)N(C)c1ccccc12", "-1.14 (inactive)"],
  ["COc1cc(C(O)C2C=CC3C(=O)N(c4ccccc4)C(=O)C3N2Nc2ccccc2)cc(OC)c1OC (centres undefined)", "26.2 (active)"],
  ["C=CC[C@@]1(C(=O)OC)N=C(c2ccc(OCCCO)cc2)O[C@@H]1c1ccccc1N=[N+]=[N-]", "30.6 (active)"],
  ["CN(C)C(=O)[C@@]1(Cc2ccccc2CN=[N+]=[N-])COC(c2ccc(OCCCO)cc2)=N1", "25.9 (active)"],
  ["O=C1[C@@H]2[C@@H](CC(COc3ccccc3)=C([C@H](O)CCc3ccccc3)[C@@H]2CO)C(=O)N1Cc1ccccc1", "27.8 (active)"],
  ["CC(C)N1C(=O)c2ccccc2[C@](C)(C(=O)NCC(F)(F)F)[C@@H]1c1ccc(CO)cc1", "0.834 (inactive)"],
  ["COC(=O)C(CC#Cc1ccc2c(c1)[C@]1(C(=O)N2)[C@H](c2ccccc2OCCO)N2[C@H](c3ccccc3)[C@H](c3ccccc3)OC(=O)[C@H]2[C@@H]1C(=O)N1CCc2cc(OC)c(OC)cc2C1)C(=O)OC", "3.28 (inactive)"],
  ["CC(C)C[C@@H]1NC(=O)[C@@]23C(=O)N[C@@H](Cc4ccccc4)C2[C@H](C)[C@@]2(C)O[C@H]2C3/C=C/C/C=C\\CNC(=O)CNC1=O (some centres undefined)", "0.917 (inactive)"],
  ["C=CCN1C(=O)[C@]2(O[C@H](CCn3cc([C@H](O)c4ccccc4)nn3)[C@@H]([Si](C)(C)c3ccc(OC)cc3)[C@@H]2C)c2cc(NC(=O)c3ccc(OC)cc3)ccc21", "5.48 (inactive)"],
  ["C=CCNC(=O)[C@@H]1[C@H]2C(=O)O[C@H](c3ccccc3)[C@H](c3ccccc3)N2[C@H](c2ccc(OCCO)cc2)[C@@]12C(=O)Nc1ccc(C#CC3(O)CCCCCC3)cc12", "4.16 (inactive)"],
  ["CN(C)CCCNC(=O)[C@@]1(C)c2ccccc2C(=O)N(Cc2ccc(OC(F)(F)F)cc2)[C@H]1c1ccc(CO)cc1", "1.53 (inactive)"],
  ["CC(C)(C)N1CC=CC23O[C@@H]4/C=C\\CCCOC(=O)C4[C@H]2C(=O)N(CCCO)[C@@H]3C1=O (some centres undefined)", "0.46 (inactive)"],
  ["C=C(COC)C(=O)CC[C@@H](OC(=O)c1ccccc1-c1ccccc1C(=O)O)c1ccc(OCCO)cc1", "10.8 (active)"],
  ["O=C1OCCC=C[C@H]2OC34C=CCN(c5ccc6ccccc6c5)C(=O)[C@H]3N(CCO)C(=O)[C@@H]4C12 (some centres undefined)", "0.809 (inactive)"],
  ["COc1ccc([Si](C)(C)[C@@H]2[C@@H](CC(=O)N3CCC[C@H]3CO)O[C@]3(C(=O)N(Cc4cccc(N5CCCCC5=O)c4)c4ccccc43)[C@H]2C)cc1", "3.85 (inactive)"],
  ["O=C(NC1CC1)[C@@H]1c2ccccc2C(=O)N(Cc2cc(C(F)(F)F)cc(C(F)(F)F)c2)[C@H]1c1ccc(CO)cc1", "2.63 (inactive)"],
  ["C=CC[C@]1(C(=O)NCC(O)CO)COC(c2ccc(OCCCO)cc2)=N1 (some centres undefined)", "3.8 (inactive)"]
]}
